- system-tested: Shiga toxin 2 (Escherichia coli O157:H7) (UniProt P09385+P09386)
- assay-details: E. coli 0.157:H7 Shiga Toxin SOP - stx2 screening assay
- Assay type: functional
- Parameters: scale not given: direction of the effect not stated beside the values
- run-parameters: 30 µM
// Criterion not met strictly below -10% in Percent Effect; Criterion met otherwise

### Prompt Please indicate if the recorded Percent Effect for O=C1CC2(CCN(CC3CC3)C2)CN1c1ccc2c(c1)OCO2 (stereo not drawn) meets or exceeds -10%.
### Response Criterion not met

### Prompt Entry `CCc1c(C(=O)N2CCN(CC(N)=O)CC2)cnn1C(C)(C)C` : is its Percent Effect no less than -10%?
### Response Criterion met

### Prompt Tell me whether Percent Effect is at least -10% here: CCn1ccnc1CN1CCN(CCC(=O)NC(C)(C)C)CC1C (stereo not drawn)
### Response Criterion met

### Prompt Say whether `COc1ccc(CN2C[C@H]3CN(c4ccsc4)C(=O)[C@H]3C2)cc1` shows Percent Effect of -10% or more.
### Response Criterion not met

### Prompt Dear colleague, could you confirm whether CCOc1nnc(CN(C)CC2CCCN2c2cccnn2)s1 (stereo not drawn) has Percent Effect at or above -10%?
### Response Criterion not met

### Prompt Is Percent Effect for COCc1nc(C(=O)N2CCCC2c2ccccc2C)cs1 (stereo not drawn) at or above -10%?
### Response Criterion not met

### Prompt Determine whether this molecule has Percent Effect no lower than -10%: CCCNC(=O)CNc1ccc(C(=O)N2CCCCC2C)cc1C (stereo not drawn)
### Response Criterion met

### Prompt Answer whether Percent Effect of `Cc1cc2c(=O)n3c(nc2s1)CCN(C(=O)c1scnc1C)CC3` is greater than or equal to -10%.
### Response Criterion met

### Prompt Say whether CN1CC(=O)N(c2cnn(C)c2)CC12CCN(Cc1ccccc1)C2 (stereo not drawn) shows Percent Effect of -10% or more.
### Response Criterion met

###

- system-tested: Shiga toxin 2 (Escherichia coli O157:H7) (UniProt P09385+P09386)
- assay-details: E. coli 0.157:H7 Shiga Toxin SOP - stx2 screening assay
- Format: functional
- Parameters: scale not given: direction of the effect not stated beside the values
- run-parameters: 30 µM
Listing of entries alongside the reported Percent Effect.

### Prompt # query: Percent Effect of entry `c1cnn(Cc2cn3c(n2)CN(Cc2nccs2)CC3)c1`
### Response -23.5%

### Prompt Recorded Percent Effect of c1cnn(CC2CN(CCc3ccncc3)CCO2)c1 (configuration not stated) , please.
### Response 17.1%

### Prompt Requested read-out: Percent Effect. Entry: CC(=O)c1cccc(S(=O)(=O)N2CSCC2C(=O)NCC(F)(F)F)c1 (configuration not stated)
### Response -13.6%

### Prompt Which Percent Effect is listed for `CC(=O)c1sc(Nc2ccc(Cl)cn2)nc1C` ?
### Response -4.07%

### Prompt Percent Effect lookup needed for O=C(c1cnc(C2CC2)s1)N1CCCC(n2cccn2)C1 (configuration not stated) , thanks.
### Response 24.9%

### Prompt Sample `CC(C)(O)CN1CCN(C(=O)c2sccc2C2CC2)CC1` — what was its Percent Effect?
### Response 10.1%

### Prompt I'd like to know its Percent Effect. The compound in question is Cc1ccn2cc(C(=O)N3CCCC3c3c(C)nn(C)c3C)nc2c1 (configuration not stated)
### Response -1.23%

###

- system-tested: Shiga toxin 2 (Escherichia coli O157:H7) (UniProt P09385+P09386)
- assay-details: E. coli 0.157:H7 Shiga Toxin SOP - stx2 screening assay
- Type: functional
- Set-up: scale not given: direction of the effect not stated beside the values
- run-parameters: 30 µM
# reported Percent Effect; entries follow

CC(N(C)Cc1nc2c(cnn2C)c(=O)[nH]1)C(C)(C)C (configuration not stated) : 28.9%
CN(C)c1ccc(NC(=O)NCc2ccccn2)cn1 : -60.4%
CCS(=O)(=O)N1C[C@H]2C[C@H](C(=O)N(C)C)[C@@H](C1)O2 : -5.91%

### Prompt Give the measured Percent Effect of Cc1cnn(CC2CCCCN2Cc2cc(C)on2)c1 (configuration not stated) .
### Response -7.45%

### Prompt So what does the record say about Percent Effect for `CC(C)OCC(=O)N1CCCN(Cc2ccc(C#N)cc2)CC1` ?
### Response 27.2%

### Prompt Which Percent Effect is reported for this compound? O=C(NCC1CC1)C1CN(C(=O)c2cccc(Cl)c2)CC12CCOCC2 (configuration not stated)
### Response -14.2%

### Prompt Can you share its Percent Effect? I mean this compound: `O=C(c1cnccn1)N1CCc2onc(CN3CCOCC3)c2C1`
### Response -5.1%

### Prompt Quick one: Percent Effect of `Cc1nc2c(c(C)c1CC(=O)Nc1cccc(C#N)c1)c(=O)[nH]n2C` ?
### Response 5.09%

### Prompt Query (compound): `COc1cc(C)sc1C(=O)N1CCC(Nc2cccnc2)CC1` ; field requested: Percent Effect
### Response -50.2%

### Prompt Can you share its Percent Effect? I mean this compound: NC(=O)c1ccc(NC(=O)CCN2CCCC(N3CCCC3)C2)cc1 (configuration not stated)
### Response 24.7%

### Prompt Reported Percent Effect, compound `CN1CCN(C(=O)c2nc3c(o2)CN(C(=O)c2cccnc2)C3)CC1` : ____
### Response -53.6%

### Prompt # lookup: Percent Effect of `CN(CCNC(=O)NCc1ccncc1)C1CCCC1`
### Response 8.07%

###

- system-tested: Aspartate--tRNA(Asp/Asn) ligase (Mycobacterium tuberculosis (strain ATCC 25618 / H37Rv)) (UniProt P9WFW3); further: in the data most compounds retested in dose-response had high values
- Sequence (P9WFW3 whole entry): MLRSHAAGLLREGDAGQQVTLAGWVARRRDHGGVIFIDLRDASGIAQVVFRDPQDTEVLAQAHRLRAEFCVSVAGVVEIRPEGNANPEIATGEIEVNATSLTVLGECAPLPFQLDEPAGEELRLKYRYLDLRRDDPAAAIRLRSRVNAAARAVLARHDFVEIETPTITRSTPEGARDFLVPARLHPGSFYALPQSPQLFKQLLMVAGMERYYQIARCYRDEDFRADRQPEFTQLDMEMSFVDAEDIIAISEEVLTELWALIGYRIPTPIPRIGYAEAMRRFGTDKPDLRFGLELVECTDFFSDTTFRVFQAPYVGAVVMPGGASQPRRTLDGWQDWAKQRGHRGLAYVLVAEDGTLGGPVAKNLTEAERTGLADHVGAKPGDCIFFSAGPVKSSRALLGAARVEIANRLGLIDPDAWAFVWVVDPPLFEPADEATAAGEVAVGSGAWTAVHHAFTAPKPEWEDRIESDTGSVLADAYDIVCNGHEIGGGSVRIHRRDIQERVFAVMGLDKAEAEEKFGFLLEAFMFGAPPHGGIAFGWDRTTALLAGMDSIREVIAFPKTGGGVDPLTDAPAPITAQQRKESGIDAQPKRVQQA
- assay-details: Assay for Asp RNA synthetase-1 from Mycobacterium tuberculosis
- Type: functional
- Set-up: scale not given: direction of the effect not stated beside the values
- run-parameters: 30 µM
Recorded Percent Effect for the following molecules

// below: answered molecules
CCn1ccnc1CN1CCN(C(C)C(=O)NC2CCCCC2)CC1 (configuration not stated) : -1.01%
Cc1noc(CCCC(=O)NC(C)c2ccccn2)n1 (configuration not stated) : -1.28%

### Prompt Which value of Percent Effect has been reported for CC(=O)N(Cc1ncc(C)o1)C1CCN(Cc2cccc(C#N)c2)C1 (configuration not stated) in the records?
### Response 0.127%

### Prompt Which Percent Effect is listed for `COc1cccc(CN(C)C(=O)CN2CCN(c3nccn3C)CC2)c1` ?
### Response 2.95%

### Prompt Form field: reported Percent Effect of c1ccc(OCc2ccncc2)c(CNC2CCc3ncnn3C2)c1 (configuration not stated)
### Response -3.54%

### Prompt // lookup Percent Effect for `Cn1cc(-c2ncnc3c2CCN(C(=O)N2CCOCC2)CC3)cn1`
### Response -8.2%

### Prompt Percent Effect lookup needed for CC(C)c1nccn1C1CCCN(C(=O)c2ccc3[nH]nnc3c2)C1 (configuration not stated) , thanks.
### Response -3.89%

### Prompt Suppose we examine the molecule CCN(CC)Cc1ccc(C(=O)N2CCN(CC(C)O)CC2)cc1 (configuration not stated) ; what Percent Effect value has been reported?
### Response 0.607%

### Prompt What does the data say about its Percent Effect? Entry: `CC(C)c1nnc2n1CCN(CC(=O)Nc1nncs1)C2`
### Response -2.1%

### Prompt Which Percent Effect reading was recorded for the molecule `Cc1ccc(CNC(=O)NCc2cccnc2N(C)C)s1` ?
### Response -3.67%

### Prompt Value lookup for Percent Effect; key = CCCN1CCC(N(Cc2ncc(C)o2)C(C)=O)C1 (configuration not stated)
### Response 2.38%

### Prompt // Percent Effect lookup, key: `CN(C)C(=O)N1CCN(Cc2ccccc2)[C@@H]2CS(=O)(=O)C[C@@H]21`
### Response 0.569%

###

- system-tested: Shiga toxin 2 (Escherichia coli O157:H7) (UniProt P09385+P09386)
- assay-details: E. coli 0.157:H7 Shiga Toxin SOP - stx2 screening assay
- Assay type: functional
- Parameters: scale not given: direction of the effect not stated beside the values
- run-parameters: 30 µM
# Percent Effect annotations
Give the quantity in %, number only.

Reference set (5 entries):
CCn1cnnc1CNC(=O)N1CCN(c2nc(C)c(C)s2)CC1 : -22.1
Cc1cnn(CC2CCCN2CCc2nc3ccccc3c(=O)[nH]2)c1 (stereo unspecified) : 2.14
CC(C)C(Sc1nnnn1-c1ccccc1)C(=O)NCc1cccnc1 (stereo unspecified) : 8.76
CCCOc1cccc(CNC(=O)CN2CCN(C)CC2C)c1 (stereo unspecified) : -7.72
CCN(CC1CCOC1)C(=O)c1ccccc1N1CCOCC1 (stereo unspecified) : 23.4

### Prompt Value lookup for Percent Effect; key = `O=C(CSc1ccc2c(c1)OCCO2)NS(=O)(=O)C1CCCCC1`
### Response -14

###

- system-tested: Shiga toxin 2 (Escherichia coli O157:H7) (UniProt P09385+P09386)
- assay-details: E. coli 0.157:H7 Shiga Toxin SOP - stx2 screening assay
- Assay type: functional
- Parameters: scale not given: direction of the effect not stated beside the values
- run-parameters: 30 µM
In this section we review reported Percent Effect values for a set of compounds.
Write the numeric value and append its unit.

Example entries begin here.
CN(CC(=O)N1CCN(c2ccccc2F)CC1)c1cnccn1 : 8.69%
CNC(=O)[C@H]1C[C@@H]2CN(C(=O)c3cscn3)C[C@@H]2N1S(C)(=O)=O : -4.53%
Cc1noc(C2CCN(C(=O)CCc3nccs3)CC2)n1 : -79.2%
CCN(Cc1ccc2c(c1)OCCO2)C(=O)NC(C)Cn1ccnc1 (configuration not stated) : -4.95%
CCc1ncc2c(n1)CN(Cc1nc(-c3ccccn3)no1)CC2 : -30.2%
Cc1cc(C)n(C2CCCN(C(=O)CCNS(C)(=O)=O)C2)n1 (configuration not stated) : -20%

### Prompt Look at this compound and give its reported Percent Effect. O=C1NCc2ccc(NC(=O)C3CCCN3c3nccs3)cc21 (configuration not stated)
### Response -17.5%

### Prompt Can you share its Percent Effect? I mean this compound: CCN1CCC2(CC1)CC(Nc1ncccn1)CO2 (configuration not stated)
### Response 11.5%

### Prompt Give the measured Percent Effect of CSCCC(CO)NC(=O)c1sc(-c2ccccc2Cl)nc1C (configuration not stated) .
### Response -30.8%

### Prompt Recorded Percent Effect of `NC(=O)CN1CCCN(C(=O)c2ccn(-c3ccccc3)n2)CC1` , please.
### Response 6%

### Prompt So what's the measured Percent Effect for this one? `Cc1noc([C@@]23CCO[C@@H]2CCN(C(=O)c2sccc2C)C3)n1`
### Response -3.55%

### Prompt Query (compound): `O=C(NCc1cnc2n1CCN(CC1CC1)CC2)C1CCC1` ; field requested: Percent Effect
### Response 7.18%

Where these numbers come from: ChEMBL document CHEMBL3988442
